# maps each entry to its IC50
# target entity: UniProtKB P54760
# Sequence (P54760 whole entry): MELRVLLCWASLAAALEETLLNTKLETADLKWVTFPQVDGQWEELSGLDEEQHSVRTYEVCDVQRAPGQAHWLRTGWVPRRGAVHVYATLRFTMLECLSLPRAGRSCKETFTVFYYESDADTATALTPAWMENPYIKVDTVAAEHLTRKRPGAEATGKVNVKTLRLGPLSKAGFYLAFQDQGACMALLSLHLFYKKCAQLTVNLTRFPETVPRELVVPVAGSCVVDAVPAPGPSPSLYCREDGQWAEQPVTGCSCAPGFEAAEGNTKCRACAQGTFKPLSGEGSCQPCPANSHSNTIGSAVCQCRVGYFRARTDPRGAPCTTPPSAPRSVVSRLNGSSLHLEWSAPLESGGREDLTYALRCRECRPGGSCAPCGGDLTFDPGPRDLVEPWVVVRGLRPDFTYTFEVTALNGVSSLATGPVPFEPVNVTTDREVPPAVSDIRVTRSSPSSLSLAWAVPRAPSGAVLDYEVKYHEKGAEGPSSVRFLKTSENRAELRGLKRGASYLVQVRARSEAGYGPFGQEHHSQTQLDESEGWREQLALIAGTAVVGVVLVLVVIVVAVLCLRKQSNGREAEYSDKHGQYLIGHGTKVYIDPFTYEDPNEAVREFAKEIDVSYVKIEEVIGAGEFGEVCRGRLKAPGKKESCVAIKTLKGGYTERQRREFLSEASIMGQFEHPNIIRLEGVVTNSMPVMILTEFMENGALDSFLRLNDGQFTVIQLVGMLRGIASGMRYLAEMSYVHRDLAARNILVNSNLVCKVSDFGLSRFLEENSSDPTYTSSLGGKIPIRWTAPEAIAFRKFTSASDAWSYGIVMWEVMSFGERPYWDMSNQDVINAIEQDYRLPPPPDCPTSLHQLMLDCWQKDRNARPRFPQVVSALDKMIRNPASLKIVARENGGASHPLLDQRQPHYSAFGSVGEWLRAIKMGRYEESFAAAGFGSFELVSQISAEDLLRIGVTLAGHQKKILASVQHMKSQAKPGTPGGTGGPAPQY
The response must be a number in nM with no trailing unit.

> print(dat)
                         chemical.structure     target.entity  readout.units  measured.value
1  Cc1ccc(C(=O)Nc2cccc(C(F)(F)F)c2)cc1Nc1nc(-c2cccnc2)nc2nn(C)cc12  UniProtKB P54760             nM            1660

Please report IC50 with UniProtKB P54760 for item Cc1ccc(C(=O)Nc2cccc(C(F)(F)F)c2)cc1Nc1nc(-c2cccnc2)nc2c1cnn2C . 3

---

# target entity: Ephrin type-A receptor 7 (Homo sapiens, UniProt Q15375)
# Sequence (Q15375 whole entry, the tested form may be a part): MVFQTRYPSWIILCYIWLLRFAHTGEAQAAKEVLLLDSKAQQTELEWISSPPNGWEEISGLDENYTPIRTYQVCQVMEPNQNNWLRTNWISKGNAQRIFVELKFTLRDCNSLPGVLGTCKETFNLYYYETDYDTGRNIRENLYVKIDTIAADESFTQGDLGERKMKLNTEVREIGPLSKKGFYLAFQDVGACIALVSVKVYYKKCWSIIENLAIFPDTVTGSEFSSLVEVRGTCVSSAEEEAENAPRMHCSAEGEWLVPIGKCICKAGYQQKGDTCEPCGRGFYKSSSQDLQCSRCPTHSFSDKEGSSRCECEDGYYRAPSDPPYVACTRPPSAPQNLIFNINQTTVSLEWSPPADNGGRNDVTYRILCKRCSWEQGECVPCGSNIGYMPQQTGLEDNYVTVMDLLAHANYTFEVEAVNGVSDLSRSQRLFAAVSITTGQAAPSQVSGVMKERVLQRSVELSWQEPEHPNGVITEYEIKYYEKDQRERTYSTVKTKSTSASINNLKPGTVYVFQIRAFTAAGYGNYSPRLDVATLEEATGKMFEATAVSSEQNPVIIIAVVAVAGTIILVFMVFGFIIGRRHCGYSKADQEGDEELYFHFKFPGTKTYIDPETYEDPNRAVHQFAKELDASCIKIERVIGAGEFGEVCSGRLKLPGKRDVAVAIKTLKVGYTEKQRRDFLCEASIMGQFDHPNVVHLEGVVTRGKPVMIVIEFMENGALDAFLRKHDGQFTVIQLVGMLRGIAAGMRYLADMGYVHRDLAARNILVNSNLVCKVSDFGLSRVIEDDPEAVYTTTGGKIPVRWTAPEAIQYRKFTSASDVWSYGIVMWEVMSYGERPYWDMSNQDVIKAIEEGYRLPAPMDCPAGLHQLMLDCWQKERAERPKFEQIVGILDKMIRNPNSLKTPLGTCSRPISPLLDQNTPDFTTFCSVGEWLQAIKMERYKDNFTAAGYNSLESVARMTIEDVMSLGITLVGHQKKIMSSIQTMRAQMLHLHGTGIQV
# assay procedure: Inhibition of Nano Luc-fused full length C-terminal EPHA7 (unknown origin) expressed in HEK293T cells using NanoGlo as substrate incubated for 2 hrs in presence of tracer by NanoBRET assay
property label: IC50

> print(dat)
                         chemical.structure  measured.value
1  Cc1ccc(C(=O)Nc2cccc(C(F)(F)F)c2)cc1Nc1nc(-c2cccnc2)nc2nn(C)cc12         > 50 µM

Here is the next item to consider.
Specify IC50 for Cc1ccc(C(=O)Nc2cccc(C(F)(F)F)c2)cc1Nc1nc(-c2cccnc2)nc2c1cnn2C and stop. > 50 µM

---

# target entity: Ephrin type-A receptor 2 (Homo sapiens, UniProt P29317)
# Sequence (P29317 whole entry, the tested form may be a part): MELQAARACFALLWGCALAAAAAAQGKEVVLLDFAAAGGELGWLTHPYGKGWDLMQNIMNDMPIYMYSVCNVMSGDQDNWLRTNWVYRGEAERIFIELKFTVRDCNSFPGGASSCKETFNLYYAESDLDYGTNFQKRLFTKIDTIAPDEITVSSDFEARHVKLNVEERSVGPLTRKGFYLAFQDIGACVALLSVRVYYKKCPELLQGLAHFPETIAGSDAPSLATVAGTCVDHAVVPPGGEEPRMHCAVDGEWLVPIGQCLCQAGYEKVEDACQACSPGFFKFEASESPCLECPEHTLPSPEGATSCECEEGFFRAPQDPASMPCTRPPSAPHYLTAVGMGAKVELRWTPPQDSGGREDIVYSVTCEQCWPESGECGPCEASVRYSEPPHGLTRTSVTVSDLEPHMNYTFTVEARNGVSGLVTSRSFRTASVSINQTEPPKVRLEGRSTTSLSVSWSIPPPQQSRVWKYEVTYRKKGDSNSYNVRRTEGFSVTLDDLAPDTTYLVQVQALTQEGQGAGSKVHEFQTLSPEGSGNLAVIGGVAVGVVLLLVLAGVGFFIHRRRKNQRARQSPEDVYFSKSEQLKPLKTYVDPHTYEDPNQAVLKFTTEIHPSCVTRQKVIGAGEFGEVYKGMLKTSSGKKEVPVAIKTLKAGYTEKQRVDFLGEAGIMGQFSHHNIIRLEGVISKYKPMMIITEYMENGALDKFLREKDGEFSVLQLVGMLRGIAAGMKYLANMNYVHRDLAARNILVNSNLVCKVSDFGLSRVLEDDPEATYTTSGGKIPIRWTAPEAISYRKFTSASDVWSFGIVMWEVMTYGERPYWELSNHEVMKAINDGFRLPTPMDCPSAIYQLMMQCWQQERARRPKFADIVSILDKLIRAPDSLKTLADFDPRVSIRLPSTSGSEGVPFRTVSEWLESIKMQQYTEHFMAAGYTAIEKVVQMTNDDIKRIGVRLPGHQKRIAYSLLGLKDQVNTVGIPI
# assay procedure: Inhibition of Nano Luc-fused full length C-terminal EPHA2 (unknown origin) expressed in HEK293T cells using NanoGlo as substrate incubated for 2 hrs in presence of tracer by NanoBRET assay
property label: pIC50
Please report pIC50 as the negative decimal logarithm of the molar concentration, giving only the number.

Please supply the value of reported pIC50 for the item Cc1ccc(C(=O)Nc2cccc(C(F)(F)F)c2)cc1Nc1nc(-c2cccnc2)nc2nn(C)cc12 6.79

---

Listed here are compounds together with their documented pIC50.
# target entity: UniProt P29320
# Sequence (P29320 whole entry, the tested form may be a part): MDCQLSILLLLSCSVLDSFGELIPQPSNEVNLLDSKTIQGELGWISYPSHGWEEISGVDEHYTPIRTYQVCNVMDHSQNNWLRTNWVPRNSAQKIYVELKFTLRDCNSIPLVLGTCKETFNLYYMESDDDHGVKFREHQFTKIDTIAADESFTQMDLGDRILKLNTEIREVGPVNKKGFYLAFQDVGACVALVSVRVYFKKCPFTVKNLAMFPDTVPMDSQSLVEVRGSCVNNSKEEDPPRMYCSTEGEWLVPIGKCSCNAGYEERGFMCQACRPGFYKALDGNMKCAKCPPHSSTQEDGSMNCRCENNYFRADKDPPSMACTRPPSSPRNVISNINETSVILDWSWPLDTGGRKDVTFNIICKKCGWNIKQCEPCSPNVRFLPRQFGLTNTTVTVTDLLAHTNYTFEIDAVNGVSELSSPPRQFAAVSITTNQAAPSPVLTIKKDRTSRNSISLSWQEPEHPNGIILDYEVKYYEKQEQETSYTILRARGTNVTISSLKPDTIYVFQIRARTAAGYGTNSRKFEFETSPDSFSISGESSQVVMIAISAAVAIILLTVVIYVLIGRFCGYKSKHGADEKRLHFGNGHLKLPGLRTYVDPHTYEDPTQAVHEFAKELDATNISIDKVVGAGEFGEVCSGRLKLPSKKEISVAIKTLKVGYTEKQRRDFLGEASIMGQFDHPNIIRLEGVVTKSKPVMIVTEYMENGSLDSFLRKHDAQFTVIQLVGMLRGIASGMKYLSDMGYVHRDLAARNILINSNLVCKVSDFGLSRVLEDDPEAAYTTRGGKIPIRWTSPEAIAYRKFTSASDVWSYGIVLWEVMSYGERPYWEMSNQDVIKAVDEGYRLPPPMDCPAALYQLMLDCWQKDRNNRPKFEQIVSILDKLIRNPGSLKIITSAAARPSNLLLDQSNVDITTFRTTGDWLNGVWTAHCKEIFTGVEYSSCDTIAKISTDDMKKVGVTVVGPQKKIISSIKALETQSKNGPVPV
# assay procedure: Inhibition of Nano Luc-fused full length C-terminal EPHA3 (unknown origin) expressed in HEK293T cells using NanoGlo as substrate incubated for 2 hrs in presence of tracer by NanoBRET assay
Formally, pIC50 is defined as -log10 of the concentration c, with c in mol/L.

> print(dat)
                         chemical.structure  measured.value
1  Cc1ccc(C(=O)Nc2cccc(C(F)(F)F)c2)cc1Nc1nc(-c2cccnc2)nc2c1cnn2C            9.52

Name the recorded pIC50 of the item Cc1ccc(C(=O)Nc2cccc(C(F)(F)F)c2)cc1Nc1nc(-c2cccnc2)nc2nn(C)cc12 in your answer. 7.30

---

# target entity: Tyrosine-protein kinase ABL1 (Homo sapiens, UniProt P00519)
# Sequence (P00519 whole entry): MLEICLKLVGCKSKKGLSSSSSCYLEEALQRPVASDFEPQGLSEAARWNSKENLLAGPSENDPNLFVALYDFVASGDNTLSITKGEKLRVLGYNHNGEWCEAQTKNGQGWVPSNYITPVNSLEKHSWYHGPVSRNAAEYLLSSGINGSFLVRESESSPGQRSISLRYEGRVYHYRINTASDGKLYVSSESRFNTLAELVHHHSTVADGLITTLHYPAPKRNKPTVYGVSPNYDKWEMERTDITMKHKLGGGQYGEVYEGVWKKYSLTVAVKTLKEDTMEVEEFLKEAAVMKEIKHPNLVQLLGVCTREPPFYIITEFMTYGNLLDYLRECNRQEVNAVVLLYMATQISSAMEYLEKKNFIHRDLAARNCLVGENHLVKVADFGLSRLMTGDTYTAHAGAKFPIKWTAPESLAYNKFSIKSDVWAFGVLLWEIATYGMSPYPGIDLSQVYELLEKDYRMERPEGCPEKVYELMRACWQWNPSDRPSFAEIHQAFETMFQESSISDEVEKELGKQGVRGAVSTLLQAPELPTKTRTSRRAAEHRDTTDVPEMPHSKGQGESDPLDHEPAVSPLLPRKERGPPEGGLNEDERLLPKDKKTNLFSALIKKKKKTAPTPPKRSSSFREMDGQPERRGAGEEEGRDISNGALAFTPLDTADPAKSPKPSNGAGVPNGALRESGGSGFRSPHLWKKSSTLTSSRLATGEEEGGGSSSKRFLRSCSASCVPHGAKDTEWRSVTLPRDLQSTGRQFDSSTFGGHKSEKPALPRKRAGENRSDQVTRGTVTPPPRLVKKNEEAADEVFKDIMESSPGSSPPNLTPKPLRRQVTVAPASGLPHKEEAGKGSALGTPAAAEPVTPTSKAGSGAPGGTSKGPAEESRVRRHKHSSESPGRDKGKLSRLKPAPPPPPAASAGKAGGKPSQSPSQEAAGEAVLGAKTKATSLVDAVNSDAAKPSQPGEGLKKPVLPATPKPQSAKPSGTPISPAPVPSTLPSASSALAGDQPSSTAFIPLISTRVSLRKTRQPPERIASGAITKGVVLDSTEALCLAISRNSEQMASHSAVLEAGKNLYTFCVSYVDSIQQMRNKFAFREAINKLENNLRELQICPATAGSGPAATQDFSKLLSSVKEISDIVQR
# assay setup: read-out: Kd(app)
property label: pKd
In plain terms, pKd is the concentration in mol/L turned into minus its base-10 logarithm.

Return reported pKd. Input compound: Cc1ccc(C(=O)Nc2cccc(C(F)(F)F)c2)cc1Nc1nc(-c2cccnc2)nc2nn(C)cc12 6.14

Kindly indicate its recorded pKd. Item: Cc1ccc(C(=O)Nc2cccc(C(F)(F)F)c2)cc1Nc1nc(-c2cccnc2)nc2c1cnn2C 6.04

---

# target entity: Ephrin type-B receptor 6 (Homo sapiens)
# Sequence (O15197 whole entry): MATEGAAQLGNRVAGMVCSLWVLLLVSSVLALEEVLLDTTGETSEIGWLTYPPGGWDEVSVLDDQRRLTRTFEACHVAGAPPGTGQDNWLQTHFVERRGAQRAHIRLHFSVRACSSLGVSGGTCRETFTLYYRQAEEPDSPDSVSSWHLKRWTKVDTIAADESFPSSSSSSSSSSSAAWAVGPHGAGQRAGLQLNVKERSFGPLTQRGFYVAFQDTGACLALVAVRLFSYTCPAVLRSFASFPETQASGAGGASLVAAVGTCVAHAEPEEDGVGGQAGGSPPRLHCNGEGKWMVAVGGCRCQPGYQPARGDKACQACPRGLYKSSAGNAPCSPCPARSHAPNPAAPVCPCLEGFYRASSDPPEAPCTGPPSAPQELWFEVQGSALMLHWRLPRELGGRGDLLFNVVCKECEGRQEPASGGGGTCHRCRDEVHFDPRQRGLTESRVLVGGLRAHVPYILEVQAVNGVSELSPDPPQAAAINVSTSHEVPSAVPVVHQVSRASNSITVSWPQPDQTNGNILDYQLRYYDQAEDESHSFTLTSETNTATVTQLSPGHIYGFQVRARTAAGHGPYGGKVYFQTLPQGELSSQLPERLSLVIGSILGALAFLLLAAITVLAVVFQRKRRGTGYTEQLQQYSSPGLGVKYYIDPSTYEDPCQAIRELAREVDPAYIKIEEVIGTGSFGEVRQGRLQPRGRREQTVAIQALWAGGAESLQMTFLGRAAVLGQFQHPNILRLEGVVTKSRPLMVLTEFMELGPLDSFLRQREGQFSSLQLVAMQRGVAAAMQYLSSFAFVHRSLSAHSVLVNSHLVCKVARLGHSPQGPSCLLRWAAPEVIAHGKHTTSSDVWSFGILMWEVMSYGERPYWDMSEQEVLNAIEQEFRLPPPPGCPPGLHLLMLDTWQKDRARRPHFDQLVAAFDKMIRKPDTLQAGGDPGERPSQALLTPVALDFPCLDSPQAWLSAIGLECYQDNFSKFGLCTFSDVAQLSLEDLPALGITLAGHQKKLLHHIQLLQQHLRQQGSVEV
# assay procedure: Inhibition of Nano Luc-fused full length C-terminal EPHB6 (unknown origin) expressed in HEK293T cells using NanoGlo as substrate incubated for 2 hrs in presence of tracer by NanoBRET assay
property label: IC50 (µM)
Answer in µM, number only, no unit symbol.

Identify IC50 associated with the compound Cc1ccc(C(=O)Nc2cccc(C(F)(F)F)c2)cc1Nc1nc(-c2cccnc2)nc2c1cnn2C 4.48

---

# target entity: Ephrin type-B receptor 2 (Homo sapiens, UniProt P29323)
# Sequence (P29323 whole entry): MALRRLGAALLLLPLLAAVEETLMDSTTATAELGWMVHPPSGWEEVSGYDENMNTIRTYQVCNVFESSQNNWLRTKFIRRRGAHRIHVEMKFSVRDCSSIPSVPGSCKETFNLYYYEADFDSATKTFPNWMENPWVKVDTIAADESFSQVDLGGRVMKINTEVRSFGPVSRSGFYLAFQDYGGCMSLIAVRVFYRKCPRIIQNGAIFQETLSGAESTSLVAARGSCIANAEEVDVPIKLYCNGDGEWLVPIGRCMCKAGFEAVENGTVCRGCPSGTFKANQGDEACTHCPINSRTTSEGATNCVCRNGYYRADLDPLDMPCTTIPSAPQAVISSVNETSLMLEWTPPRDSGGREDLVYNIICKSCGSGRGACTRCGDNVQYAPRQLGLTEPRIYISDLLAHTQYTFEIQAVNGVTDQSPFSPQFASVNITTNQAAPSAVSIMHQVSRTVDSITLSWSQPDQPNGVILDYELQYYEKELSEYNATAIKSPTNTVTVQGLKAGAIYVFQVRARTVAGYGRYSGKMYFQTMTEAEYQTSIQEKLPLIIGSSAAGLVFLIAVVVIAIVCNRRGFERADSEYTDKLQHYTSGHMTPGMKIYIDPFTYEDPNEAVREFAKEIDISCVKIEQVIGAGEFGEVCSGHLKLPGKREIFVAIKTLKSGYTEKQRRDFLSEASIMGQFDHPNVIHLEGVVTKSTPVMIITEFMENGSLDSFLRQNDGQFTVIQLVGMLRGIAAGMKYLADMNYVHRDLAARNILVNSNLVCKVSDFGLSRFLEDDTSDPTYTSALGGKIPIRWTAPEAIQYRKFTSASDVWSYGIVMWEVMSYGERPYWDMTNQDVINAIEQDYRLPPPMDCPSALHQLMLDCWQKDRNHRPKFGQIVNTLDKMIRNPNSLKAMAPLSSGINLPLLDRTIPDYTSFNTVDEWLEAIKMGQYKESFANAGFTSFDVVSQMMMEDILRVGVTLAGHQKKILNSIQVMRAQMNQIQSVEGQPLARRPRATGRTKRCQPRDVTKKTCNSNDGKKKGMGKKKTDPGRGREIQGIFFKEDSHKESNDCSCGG
# assay procedure: Inhibition of Nano Luc-fused full length C-terminal EPHB2 (unknown origin) expressed in HEK293T cells using NanoGlo as substrate incubated for 2 hrs in presence of tracer by NanoBRET assay
property label: pIC50
Quick note: pIC50 means taking -log10 of the concentration in moles per liter.

> print(dat)
                         chemical.structure  measured.value
1  Cc1ccc(C(=O)Nc2cccc(C(F)(F)F)c2)cc1Nc1nc(-c2cccnc2)nc2c1cnn2C            8.60

Provide pIC50 value for the following compound: Cc1ccc(C(=O)Nc2cccc(C(F)(F)F)c2)cc1Nc1nc(-c2cccnc2)nc2nn(C)cc12 6.20
